molecular target: Transient receptor potential cation channel subfamily A member 1 (Homo sapiens); assay: Agonist activity at human TRPA1 expressed in HEK293 cells assessed as increase in intracellular calcium level at 33 uM measured for 2.5 mins by Fluo-8-AM dye based fluorescence assay; format: cell-based
Calls of active or inactive are those of the source. No cut-off for these calls is given here.
Attribute measured: Activity

// fetch Activity given entry `Cc1nn2c(O)cc(C3CCN(C(=O)OCc4ccccc4)CC3)nc2c1-c1ccc(F)cc1`
inactive

// fetch Activity given entry `Cc1nn2c(O)cc(C3CCN(C(=O)OCc4ccccc4)CC3)nc2c1-c1ccc(Cl)cc1`
inactive

// fetch Activity given entry `CCOC(=O)N1CCC(c2cc(O)n3nc(C)c(-c4ccc(F)cc4)c3n2)CC1`
inactive

// fetch Activity given entry `CCOC(=O)N1CCC(c2cc(O)n3nc(C)c(-c4ccc(C(F)(F)F)cc4)c3n2)CC1`
inactive

---

Recorded EC50 for the following molecules
Biological target: Short transient receptor potential channel 6 (Mus musculus, UniProt Q61143)
Sequence (Q61143 whole entry): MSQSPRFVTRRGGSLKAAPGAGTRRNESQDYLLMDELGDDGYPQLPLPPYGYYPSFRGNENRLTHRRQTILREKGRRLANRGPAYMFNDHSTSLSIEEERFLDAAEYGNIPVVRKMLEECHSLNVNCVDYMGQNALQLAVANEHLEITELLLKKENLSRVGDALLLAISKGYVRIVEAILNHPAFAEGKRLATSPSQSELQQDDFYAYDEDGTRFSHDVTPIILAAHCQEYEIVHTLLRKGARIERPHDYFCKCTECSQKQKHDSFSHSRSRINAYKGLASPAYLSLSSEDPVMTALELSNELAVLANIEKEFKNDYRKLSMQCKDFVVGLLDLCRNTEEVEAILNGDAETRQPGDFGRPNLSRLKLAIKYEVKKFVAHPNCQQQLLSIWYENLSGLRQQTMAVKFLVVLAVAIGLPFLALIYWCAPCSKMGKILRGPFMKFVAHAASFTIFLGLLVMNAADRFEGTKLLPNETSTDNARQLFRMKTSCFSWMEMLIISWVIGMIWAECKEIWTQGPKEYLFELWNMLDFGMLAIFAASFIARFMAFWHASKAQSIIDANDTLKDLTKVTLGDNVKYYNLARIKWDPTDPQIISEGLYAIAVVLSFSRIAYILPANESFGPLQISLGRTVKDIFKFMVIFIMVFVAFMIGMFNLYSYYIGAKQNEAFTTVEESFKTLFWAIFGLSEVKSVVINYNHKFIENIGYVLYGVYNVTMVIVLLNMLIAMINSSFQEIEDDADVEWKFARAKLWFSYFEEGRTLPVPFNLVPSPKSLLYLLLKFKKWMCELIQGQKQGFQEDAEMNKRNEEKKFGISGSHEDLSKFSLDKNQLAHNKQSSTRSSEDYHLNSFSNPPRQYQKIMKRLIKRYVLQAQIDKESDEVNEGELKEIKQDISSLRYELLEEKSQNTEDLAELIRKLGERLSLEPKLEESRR
Test: Agonist activity at mouse TRPC6 expressed in HEK293 cells co-expressing Gq11-PLCbeta fused M5 receptor assessed as increase in intracellular calcium level measured for 2.5 mins by Fluo-8-AM dye-based fluorescence assay
Assay type: cell-based
Conditions: read-out: EC50
Give the value, in units of µM, as a plain number.

// fetch EC50 given entry `CCOC(=O)N1CCC(C)(c2cc(O)n3nc(C)c(-c4ccc([N+](=O)[O-])cc4)c3n2)CC1`
8

// fetch EC50 given entry `Cc1nn2c(O)cc(C3CCN(C(=O)OCc4ccccc4)CC3)nc2c1-c1ccc(Cl)cc1`
7.79

// fetch EC50 given entry `CCOC(=O)N1CCC(c2cc(O)n3nc(C)c(-c4ccc(F)cc4)c3n2)CC1`
4.66

Next:
// fetch EC50 given entry `CCC(=O)N1CCC(c2cc(O)n3nc(C)c(-c4ccc(F)cc4)c3n2)CC1`
28.8

// fetch EC50 given entry `Cc1nn2c(O)cc(C3CCN(C(=O)c4ccc(Br)nc4)CC3)nc2c1-c1ccc(F)cc1`
12.3

// fetch EC50 given entry `CCOC(=O)N1CCC(c2cc(O)n3nc(C)c(-c4ccc([N+](=O)[O-])cc4)c3n2)CC1`
2

// fetch EC50 given entry `Cc1nn2c(O)cc(C3CCN(C(=O)OCc4ccccc4)CC3)nc2c1-c1ccc(F)cc1`
3.91
